Assay: Toxicity liver stage against HepG2, at 10uM
Format: cell-based
Parameters: test concentration 10 uM, cell line HepG2-A16-CD81EGFP
Conditions: human, HepG2-A16-CD81EGFP cells; read-out: INHIBITION
assay-endpoint: cytotoxicity at 10 µM (%)
Please state the figure in %; there is no need to write the unit.

compound | cytotoxicity at 10 µM / %
Cc1cccc2cc(C(=O)N3CCC(F)(F)CC3)n(C)c12 | 3.76
CN(C)c1ccccc1C(=O)N1C[C@@H](CN2CCCCC2)[C@@H](CO)C1 | -12.1

Data request, read-out cytotoxicity at 10 µM, for O=C(COc1ccccc1F)NCC(O)(c1ccccc1)C1CC1 (centres undefined)
-3.68
